Data origin, for the record: paper PMC10499915

Test system: chymotrypsin
Construct: purchased Sigma-Aldrich
Experiment: Proteolytic stability with chymotrypsin
Assay type: in vitro ADME
Details: chymotrypsin (isolated enzyme) in buffer; after 90 min; 0.125 mg peptide, 1.25 µg enzyme, Tris·HCl 50 mM pH 7.8, 37 °C; HPLC peak area (HPLC–MS); triplicates; read-out: percentage of intact peptide with chymotrypsin
Square brackets hold non-standard residues; d marks the D form. Peptide text beside a SMILES is read from it. Aib = CC(C)(N)C(=O)O
observable: remaining at 1.5 h, 0.625 mg/mL (%)
Entry rule: numbers only, all in %.

Lab note: chymotrypsin assay, enter remaining at 1.5 h, 0.625 mg/mL for CC[C@H](C)[C@H](NC(=O)[C@H](Cc1c[nH]c2ccccc12)NC(=O)[C@H](CCCCN)NC(=O)C(C)(C)NC(=O)[C@@H](NC(=O)[C@H](CCCCN)NC(=O)CNC(=O)[C@@H](NC(=O)[C@H](CCCCN)NC(=O)[C@H](CCCCN)NC(=O)[C@H](CC(C)C)NC(=O)[C@H](CCCNC(=N)N)NC(=O)[C@H](CCCCN)NC(C)=O)[C@@H](C)CC)C(C)C)C(N)=O [h] (Ac-KRLKKIGKV[Aib]KWI-NH2) here 50
